Reference source: paper PMC11251504

experiment: Disappearance of Ang-(1-12) added to nonstabilized human plasma incubated at 37 °C; assay type: in vitro ADME; conditions: 10 minutes, LC-MS/MS, read-out: Fraction of added Ang-(1-12) that disappeared within 10 minutes
Peptide text beside a SMILES is read from it.
MEASUREMENT_KIND: metabolised at 10 min

Given item CC[C@H](C)[C@H](NC(=O)[C@@H](NC(=O)[C@H](CC(C)C)NC(=O)[C@H](Cc1c[nH]cn1)NC(=O)[C@H](Cc1ccccc1)NC(=O)[C@@H]1CCCN1C(=O)[C@H](Cc1c[nH]cn1)NC(=O)[C@@H](NC(=O)[C@H](Cc1ccc(O)cc1)NC(=O)[C@@H](NC(=O)[C@H](CCCNC(=N)N)NC(=O)[C@@H](N)CC(=O)O)C(C)C)[C@@H](C)CC)C(C)C)C(=O)O [Ang-(1-12), Angiotensin-(1-12)] (H-DRVYIHPFHLVI-OH) , the value recorded as its metabolised at 10 min is ~80%
